Data credit: the supplement of paper PMC9694430

Test system: LOC_OS02G08530-cb003;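 further: purified Escherichia coli-expressed rice kinase domain construct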
Experiment: thermal shift delta Tm vs DMSO control; higher = stronger stabilization (binding)
Settings: 12.5 µM; protein concentration 2 µM
Answer Not met if thermal shift delta Tm is under 1 °C, and Met if it is 1 °C or more.

Determine whether measured thermal shift delta Tm meets or exceeds 1 °C for `COc1cc2c(Nc3ccc(NC(=O)c4ccccc4)cc3)ncnc2cc1OCCCN1CCOCC1`
Not met

Determine whether measured thermal shift delta Tm meets or exceeds 1 °C for COc1ccc(Cl)c(Nc2nc3ccccc3nc2NS(=O)(=O)c2cccc(NC(=O)C(C)(C)N)c2)c1 [Pilaralisib (XL147)]
Not met

Determine whether measured thermal shift delta Tm meets or exceeds 1 °C for `COc1cccc2cc(-c3nc([C@H]4CC[C@H](C(=O)O)CC4)n4ncnc(N)c34)[nH]c12`
Met

Determine whether measured thermal shift delta Tm meets or exceeds 1 °C for `CC#CC(=O)Nc1ccc2ncnc(Nc3cccc(Br)c3)c2c1`
Met

Determine whether measured thermal shift delta Tm meets or exceeds 1 °C for `Cc1c(C(=O)Nc2ccc(Oc3ccnc4[nH]cc(-c5ccccc5)c34)c(F)c2)c(=O)n(-c2ccc(F)cc2)n1C`
Met

Determine whether measured thermal shift delta Tm meets or exceeds 1 °C for `NC[C@@](O)(c1ccc(Cl)cc1)c1ccc(-c2cn[nH]c2)cc1`
Not met

Determine whether measured thermal shift delta Tm meets or exceeds 1 °C for CC1Oc2cc(cnc2N)-c2c(nn(C)c2C#N)CN(C)C(=O)c2ccc(F)cc21 (stereo not given)
Met

Determine whether measured thermal shift delta Tm meets or exceeds 1 °C for COc1cc(CCc2cc(NC(=O)c3ccc(N4CC(C)NC(C)C4)cc3)n[nH]2)cc(OC)c1 (stereo not given)
Met

Determine whether measured thermal shift delta Tm meets or exceeds 1 °C for `Cc1c(Cn2c(C)nc3c(C(=O)O)cc(N4CCOCC4)cc32)cccc1C(F)(F)F`
Not met

Determine whether measured thermal shift delta Tm meets or exceeds 1 °C for O=C1Cc2c([nH]c3ccc(Br)cc23)-c2ccccc2N1 [Kenpaullone]
Met

Determine whether measured thermal shift delta Tm meets or exceeds 1 °C for O=C1NC(=O)[C@@H](c2cn3c4c(cccc24)CCC3)[C@@H]1c1c[nH]c2ccccc12 [Tivantinib (ARQ 197)]
Not met

Determine whether measured thermal shift delta Tm meets or exceeds 1 °C for FC(F)(F)c1ccc(CNc2ccc(Cc3c[nH]c4ncc(Cl)cc34)cn2)cn1 [Pexidartinib (PLX3397)]
Met

Determine whether measured thermal shift delta Tm meets or exceeds 1 °C for O=c1sn(-c2cccc3ccccc23)c(=O)n1Cc1ccccc1 [Tideglusib]
Not met

Determine whether measured thermal shift delta Tm meets or exceeds 1 °C for `O=C1NC(=O)C(c2ccccc2[N+](=O)[O-])=C1Nc1ccc(O)c(Cl)c1`
Met

Determine whether measured thermal shift delta Tm meets or exceeds 1 °C for COc1cc2/c(=N/c3ccc(Br)cc3F)nc[nH]c2cc1OCC1CCN(C)CC1 [Vandetanib (ZD6474)]
Met

Determine whether measured thermal shift delta Tm meets or exceeds 1 °C for Cn1cnc2c(F)c(Nc3ccc(Br)cc3Cl)c(C(=O)NOCCO)cc21 [Selumetinib (AZD6244)]
Not met

Determine whether measured thermal shift delta Tm meets or exceeds 1 °C for `COc1cc(N2CCC(N3CCN(C)CC3)CC2)ccc1Nc1ncnc(Nc2ccccc2S(=O)(=O)C(C)C)n1`
Met

Determine whether measured thermal shift delta Tm meets or exceeds 1 °C for OC1CCC(Nc2ncc3nc(Nc4c(F)cc(F)cc4F)n([C@H]4CCOC4)c3n2)CC1 (stereo not given in full) [Tanzisertib(CC-930)]
Met

Determine whether measured thermal shift delta Tm meets or exceeds 1 °C for `CNC(=O)Nc1ccc(-c2nc(N3CC4CCC(C3)O4)c3cnn(C4CCC5(CC4)OCCO5)c3n2)cc1`
Met

Determine whether measured thermal shift delta Tm meets or exceeds 1 °C for `Nc1nc(N)c2nc(-c3cccc(O)c3)c(-c3cccc(O)c3)nc2n1`
Not met

Determine whether measured thermal shift delta Tm meets or exceeds 1 °C for `C[C@@H](Oc1cc(-c2cnn(C3CCNCC3)c2)cnc1N)c1c(Cl)ccc(F)c1Cl`
Not met

Determine whether measured thermal shift delta Tm meets or exceeds 1 °C for `C=CC(=O)N1CCN(CCCn2c(=O)c(-c3c(Cl)c(OC)cc(OC)c3Cl)cc3cnc(NC)nc32)CC1`
Not met

Determine whether measured thermal shift delta Tm meets or exceeds 1 °C for O=C1c2c(O)cc(O)cc2OC(c2ccc(O)c(O)c2)C1O (stereo not given) [Taxifolin (Dihydroquercetin)]
Not met

Determine whether measured thermal shift delta Tm meets or exceeds 1 °C for `CCN(C)S(=O)(=O)Nc1ccc(F)c(C(=O)c2c[nH]c3ncc(-c4cnc(C5CC5)nc4)cc23)c1F`
Not met

Determine whether measured thermal shift delta Tm meets or exceeds 1 °C for `C=CC(=O)Nc1ccc(CN2C(=O)N(c3cc(OC)cc(OC)c3)Cc3cnc(Nc4ccc(N5CCN(C)CC5)cc4)nc32)cc1`
Met

Determine whether measured thermal shift delta Tm meets or exceeds 1 °C for CCN(CC)CCNC(=O)c1c(C)[nH]c(/C=C2\C(=O)Nc3ccc(F)cc32)c1C [Sunitinib]
Met

Determine whether measured thermal shift delta Tm meets or exceeds 1 °C for `CCNC(=O)Nc1ccc(-c2nc3c(c(N4CCOC[C@@H]4C)n2)CCN(C2COC2)C3)cc1`
Not met

Determine whether measured thermal shift delta Tm meets or exceeds 1 °C for `COCC(=O)NC/C=C/c1ccc2ncnc(Nc3ccc(Oc4ccc(C)nc4)c(C)c3)c2c1`
Not met

Determine whether measured thermal shift delta Tm meets or exceeds 1 °C for `Cc1nc2c(-c3cnc(N)nc3)nc(N3CCOCC3)nc2n1C(C)C`
Met

Determine whether measured thermal shift delta Tm meets or exceeds 1 °C for C#Cc1cccc(Nc2ncnc3cc4c(cc23)OCCOCCOCCO4)c1 [Icotinib]
Met

Determine whether measured thermal shift delta Tm meets or exceeds 1 °C for O=C(c1ccc(Nc2nccc(-c3cc4ccccc4s3)n2)cc1)N1CCC(N2CCCC2)CC1 [IKK-16 (IKK Inhibitor VII)]
Met

Determine whether measured thermal shift delta Tm meets or exceeds 1 °C for `Cc1[nH]c(/C=C2\C(=O)Nc3ccc(S(=O)(=O)Cc4c(Cl)cccc4Cl)cc32)c(C)c1C(=O)N1CCC[C@@H]1CN1CCCC1`
Met

Determine whether measured thermal shift delta Tm meets or exceeds 1 °C for `Cc1cc(Nc2nc(N[C@@H](C)c3ncc(F)cn3)ncc2Cl)[nH]n1`
Met

Determine whether measured thermal shift delta Tm meets or exceeds 1 °C for `Cc1cc(F)c(Nc2ncnc3cc(OCc4ccccc4)ccc23)cc1O`
Met
